Origin of values: ChEMBL document CHEMBL1131490

# measurement.notes: The value for hypothermia against antigen provocation (po)
# measurement.context: in vivo
reported.property: selectivity ratio
// no unit, no text: just the number

For COc1ccc(C2CCC(C(=O)O)C2)cc1OC1CCCC1 (stereo unspecified) , what is its reported selectivity ratio?
0.17

---

pEC50: recorded values
# Organism: Oryctolagus cuniculus
# measurement.notes: Stimulation of acid secretion from rabbit parietal glands
# Type: functional
// pEC50 here means minus log10 of the molar concentration (mol/L)

Any idea what pEC50 was measured for COc1ccc([C@]2(C#N)CC[C@@H](C(=O)O)CC2)cc1OC1CCCC1 (stereo in doubt; 1) ?
6.10

Given COc1ccc([C@@H]2CNC(=O)C2)cc1OC1CCCC1 [(-)-ROLIPRAM] , state its recorded pEC50.
8.40

---

# target.or.system: Phosphodiesterase 4 (Homo sapiens, UniProt P27815+Q08499+Q07343+Q08493)
# measurement.notes: Inhibition activity against human monocyte derived PDE4 catalytic activity (LPDE4)
# Type: protein assay
Assign labels as follows, please: y for IC50 below 500 nM; n for IC50 equal to or exceeding 500 nM.

For orientation, consider the following solved cases.
COc1ccc(C2CC(=O)N(Cc3ccc(N)cc3)C2)cc1OC1CCCC1 (stereo not drawn) ... y
C#CC1(c2ccc(OC)c(OC3CCCC3)c2)CCC(=O)CC1 ... y
COc1ccc(C2CCC(C(=O)O)C2)cc1OC1CCCC1 (stereo not drawn) ... n
COc1ccc(C2(C=O)CCC(=O)CC2)cc1OC1CCCC1 ... y
COc1ccc(C2(C#N)CCC(=O)CC2)cc1OC1CCCC1 ... y
COc1ccc(C2(CF)CCC(=O)CC2)cc1OC1CCCC1 ... n

Check if IC50 falls below 500 nM for COc1ccc(C2CCC(C(=O)O)CC2)cc1OC1CCCC1 (stereo not drawn) .
n

I wonder whether COc1ccc(C2CCC(=O)CC2)cc1OC1CCCC1 has IC50 below 500 nM. Can you tell?
y

For this compound, is IC50 lower than 500 nM? COc1ccc([C@@H]2CC(=O)N(Cc3ccc(N)cc3)C2)cc1OC1CCCC1
y

Check if IC50 falls below 500 nM for COc1ccc(C2(CO)CCC(=O)CC2)cc1OC1CCCC1 .
n

Take the compound COc1ccc(C2(C(N)=O)CCC(=O)CC2)cc1OC1CCCC1 and say whether its IC50 is less than 500 nM.
y

For COc1ccc(C2(C#N)CCC(c3nnn[nH]3)CC2)cc1OC1CCCC1 (stereo not drawn) , is the recorded IC50 below the cut-off of 500 nM?
n
